assay: physchem

Smiles Notation	Output Unit	solubility
COc1cccc([C@@H](C)NC(=O)c2ccc(-c3ccncn3)cc2N2CCC[C@H](CN)C2)c1	µM	65.5
COc1cccc([C@@H](C)NC(=O)c2ccc(-c3ccncn3)cc2N2CC[C@@H](CN)C2)c1	µM	63.9
COc1cccc([C@@H](C)NC(=O)c2ccc(-c3ccncn3)cc2N2CCC[C@@H](CN)C2)c1	µM	51.2
